Test system: M. mycetomatis strain mm55
Settings: primary screen, metabolic activity vs growth control; 96 h, 2 µM; inhibitor
Structures can show the parent of a compound that is named as a salt. The campaign covered roughly 5,300 compounds. About 130 (2.5%) showed an effect of 50% or more. The entries come from a sample that favours strong results as a whole.
endpoint name: % viability (%)
I only need the number, in %, no unit after it.

Completed entries (count: 2):
N=C(N)/N=C(\N)N1CCOCC1 [ONC0005372, moroxydine hydrochloride] :: 114.7
C=C1NCC[C@@H](C(=O)O)N1 [ONC0005375, ectoinezwitterion] :: 125.4

Find the measured % viability: item C=C[C@H]1C[N@@]2CC[C@H]1C[C@H]2[C@H](O)c1ccnc2ccc(OC)cc12 [ONC0003402, quinine] , target or system M. mycetomatis strain mm55.
78.04

Another molecule: NCCNc1ccc(NCCN)c2c1C(=O)c1ccncc1C2=O.O=C(O)/C=C\C(=O)O.O=C(O)/C=C\C(=O)O [ONC0000916, pixantrone dimaleate]
85.22

Entry to check: CN[C@@H](C)C(=O)N[C@H]1CCCC[C@H]2CCC(C(=O)N[C@@H](c3ccccc3)c3cn(CCCCc4ccc(CCCCn5cc([C@@H](NC(=O)[C@@H]6CC[C@@H]7CCCC[C@H](NC(=O)[C@H](C)NC)C(=O)N76)c6ccccc6)nn5)cc4)nn3)N2C1=O (some centres unmarked) [ONC0003931, sm164]
63.69

# iterate: NC1=N[C@H]2[C@H](CCCCC(=O)O)SC[C@H]2N1 [ONC0003635, 2iminobiotin]
86.51

And the next one, CCCC[C@H](NC(C)=O)C(=O)N[C@H]1CC(=O)NCCCC[C@@H](C(=O)O)NC(=O)[C@H](Cc2c[nH]c3ccccc23)NC(=O)[C@H](CCCN=C(N)N)NC(=O)[C@@H](Cc2ccccc2)NC(=O)[C@H](Cc2cnc[nH]2)NC1=O [ONC0002156, bremelanotide acetate] ?
73.73

Please give the result for CC1=C(CCC(=O)O)c2cc3[nH]c(cc4nc(cc5[nH]c(cc1n2)c(C)c5C(C)O)C(C)=C4C(C)O)c(C)c3CCC(=O)O (centres unmarked) [ONC0002122, hematoporphyrin] too.
86.42

// query: COc1ccc(Nc2nccc(NCCO)n2)cc1 [ONC0000720, cardiogenolc]
79.31

Can you check C=C1C(=O)O[C@@H]2[C@H]3O[C@]3(C)CC/C=C(\C)CC[C@@H]12 [ONC0002950, parthenolidealternatestereo] next?
150.2

// repeat for Cc1cn([C@H]2O[C@@H](CO)[C@H](O)[C@@H]2F)c(=O)[nH]c1=O [ONC0004549, clevudine levovir] and report
61.35

Param item: C=C(Nc1ccc(OCC)cc1)Nc1ccc(OCC)cc1 [ONC0005342, phenacaine]
118.6

---

System: M. mycetomatis strain mm55
Details: primary screen, metabolic activity vs growth control; 96 h, 2 µM; inhibitor
Counter-ions that a name gives are not always drawn. In all, about 5,300 compounds went through this assay and about 130 (2.5%) showed an effect of 50% or more. Shown is part of a subset that was picked to be rich in strong results.
endpoint name: % viability (%)
Return type: number; implicit unit %.

Answered examples (5):
Cc1ccc(C(C)C)c(OC=C2NCCN2)c1 :: 90.75
CCC(=O)NO :: 45.69
Nc1ncnc2c1ncn2[C@H]1O[C@@H](C(=O)N2CCN(CC(=O)Nc3cccc4c3CNC4=O)CC2)[C@H](O)[C@@H]1O :: 55.83
COc1ccc([C@]2(O)CC[C@@H](N3CC[C@@H](NC(=O)CNC(=O)c4cccc(C(F)(F)F)c4)C3)CC2)cn1 :: 81.5
CCNC(=O)[C@@H]1CCCN1C(=O)[C@H](CCCNC(=N)N)NC(=O)[C@H](CC(C)C)NC(=O)[C@@H](C)NC(=O)[C@H](Cc1ccc(O)cc1)NC(=O)[C@H](CO)NC(=O)[C@H](Cc1c[nH]c2ccccc12)NC(=O)[C@H](Cc1c[nH]cn1)NC(=O)[C@@H]1CCC(=O)N1 [ONC0002202, alarelin acetate] :: 212.3

Request the reported % viability associated with CC(COc1ccccc1)NC(C)[C@H](O)c1ccc(O)cc1 (stereo partly shown) [ONC0000598, isoxsuprine hydrochloride]
84.27

# repeat for CCCCOc1ccc(CC(=O)NO)cc1
91.55

---

Test system: M. mycetomatis strain mm55
Details: primary screen, metabolic activity vs growth control; 96 h, 2 µM; inhibitor
Hit rate of the full screen: of about 5,300 compounds, about 130 (2.5%) showed an effect of 50% or more. Only a selection was taken, and strong results are over-represented in it overall.
endpoint name: % viability (%)
Answer format: numeric, % implied, no suffix.

Example cases with answers are listed next.
CC(C)(S)C(=O)N[C@@H](CS)C(=O)O :: 45.36
C=CC(=O)N1CCCC(n2c(=O)n(-c3ccc(Oc4ccccc4)cc3)c3c(N)ncnc32)C1 (stereo not shown) :: 98.71
CC(=O)N[C@@H](CS)C(=O)O :: 67.99

Entry CC(=O)[C@@]12OC(C)(c3ccccc3)O[C@@H]1C[C@H]1[C@@H]3CCC4=CC(=O)CC[C@]4(C)[C@H]3CC[C@@]12C (stereo partly shown) [ONC0002369, algestoneacetophenide] : reported % viability = ?
99.76

---

Catalogue of % viability values
System: M. mycetomatis strain mm55
Conditions: primary screen, metabolic activity vs growth control; 96 h, 2 µM; inhibitor
Where a name gives a salt, the structure may show the parent alone. About 130 (2.5%) of roughly 5,300 compounds showed an effect of 50% or more. The list comes from a sample in which strong results are over-represented; it also holds close analogues and randomly drawn compounds.

// worked examples, % viability included
C[C@@H]1O[C@@]2(CS1)CN1CCC2CC1.C[C@H]1O[C@]2(CS1)CN1CCC2CC1.Cl [ONC0002680, cevimeline] :: 67.14%
Cc1c(N)nc([C@H](CC(N)=O)NC[C@H](N)C(N)=O)nc1C(=O)N[C@H](C(=O)N[C@H](C)[C@@H](O)[C@H](C)C(=O)N[C@H](C(=O)NCCc1nc(-c2nc(C(=O)NCCCNCCCCN)cs2)cs1)[C@@H](C)O)[C@@H](O[C@@H]1O[C@@H](CO)[C@@H](O)[C@H](O)[C@@H]1O[C@@H]1O[C@H](CO)[C@@H](O)[C@H](OC(N)=O)[C@@H]1O)c1cnc[nH]1 [ONC0002990, bleomycetin] :: 3.217%
Cc1c(N)nc([C@H](CC(N)=O)NC[C@H](N)C(N)=O)nc1C(=O)N[C@H](C(=O)N[C@H](C)[C@@H](O)[C@H](C)C(=O)N[C@H](C(=O)NCCc1nc(-c2nc(C(=O)NCCC[S+](C)C)cs2)cs1)[C@@H](C)O)[C@@H](O[C@@H]1O[C@@H](CO)[C@@H](O)[C@H](O)[C@@H]1O[C@H]1O[C@H](CO)[C@@H](O)[C@H](OC(N)=O)[C@@H]1O)c1c[nH]cn1 [ONC0004316, bleomycin sulfate] :: 4.137%

Now, please, on to the next compound.
// fetch M. mycetomatis strain mm55 % viability for CCN(CC)CCN1C(=O)C(=Cc2ccc(OC)cc2)Nc2ccccc21 [ONC0005609, caroverine]
42.25%

---

System: M. mycetomatis strain mm55
Settings: primary screen, metabolic activity vs growth control; 96 h, 2 µM; inhibitor
Where a name gives a salt, the structure may show the parent alone. Among all 5,300 compounds or so, about 130 (2.5%) showed an effect of 50% or more. Many of the other results were omitted from the sample, so strong results are more common in it than they were. Square brackets hold non-standard residues; d marks the D form. Side chains are listed from the residue outwards. Peptide text beside a SMILES is read from it. * marks the point of attachment. X1 = CCC(C)C(N)C1=NC(C(=O)*)CS1; Orn = NCCC[CH](N)C(=O)O
In plain terms, low % viability, meaning strictly below 80%, gives True, and everything else gives False.

The examples below pair each entry with its known result.
CS(=O)(=O)c1ccc(-c2cn3ccccc3n2)cc1 [ONC0002352, zolimidine] :: True
CS(=O)(=O)c1ccc(-c2cnc(N)c(C(=O)Nc3ccccc3)n2)cc1 [ONC0004547, ve821] :: True

Find out if reported % viability for C1CCC(/N=C(\NC23CC4CC(CC(C4)C2)C3)N2CCOCC2)CC1 [ONC0002564, pnu37883] is less than 80%
False

And for [N-]=[N+]=N[C@]1(CO)O[C@@H](n2ccc(N)nc2=O)[C@@H](O)[C@@H]1O [ONC0000950, ro9187] ?
True

Thanks! And O=c1[nH]cnc2c([C@@H]3N[C@H](CO)[C@@H](O)[C@H]3O)c[nH]c12 [ONC0001813, forodesine hydrochloride] ?
False

How about CCC(C)C(N)C1=NC(C(=O)NC(CC(C)C)C(=O)NC(CCC(=O)O)C(=O)NC(C(=O)NCCCCC2NC(=O)C(CC(N)=O)NC(=O)C(CC(=O)O)NC(=O)C(Cc3c[nH]cn3)NC(=O)C(Cc3ccccc3)NC(=O)C(C(C)CC)NC(=O)C(CCCN)NC2=O)C(C)CC)CS1 (stereo not drawn) [ONC0003188, bacitracin] (cyclo(DNK([Ile-Glu-Leu-X1])[Orn]IFH); configuration not given here) ?
False
